Item-by-item account of OD450
Biological target: T1, human MSLN-FL-his protein (human, UniProt Q13421 296-580)
T1 construct: Self-made in HEK293E cells; also called human MSLN full-length protein; hMSLN-FL-his; not shown: His tag
T1 sequence (Q13421 other isoform, or with tags, fused parts or gaps): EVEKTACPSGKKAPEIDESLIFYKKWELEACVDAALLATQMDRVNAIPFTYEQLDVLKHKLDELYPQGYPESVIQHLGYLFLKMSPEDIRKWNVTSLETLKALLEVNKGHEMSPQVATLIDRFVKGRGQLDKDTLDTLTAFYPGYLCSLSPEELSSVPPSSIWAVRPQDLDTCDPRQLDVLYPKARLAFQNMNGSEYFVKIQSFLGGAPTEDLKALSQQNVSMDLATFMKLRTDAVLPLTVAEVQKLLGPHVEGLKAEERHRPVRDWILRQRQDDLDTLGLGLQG
Assay: ELISA on coated antigen, antibody 0.1 nM
reported-endpoint: OD450 (OD450)

binder	quantity-unit	measurement
S009-F3.45.21 (antibody, human IgG1, kappa, V domains shown, Human-murine chimeric antibody: murine VH/VL on human IgG1 heavy and kappa light constant regions) VH: DVQLQESGPGLVKPSQSLSLTCSVTGDSITSGYYWNWIRQFPGNKLEWMGFIRFDGTNNYNPSLKNRISITRDTSKNQFFLKLNSVTTEDTATYYCAREGSYAPAWFAYWGQGTLVTVSA VL: QIVLTQSPAIMSASPGEKVTMTCSASSSLSYMYWYQQKPGSSPRLLIYDTSNLASGVPVRFSGSGSGTSYSLTISRMEAEDAATYYCQQWSSYPPTFGGGTKLEIKR	OD450	1.63
S009-F3.16.1 (antibody, human IgG1, kappa, V domains shown, Human-murine chimeric antibody: murine VH/VL on human IgG1 heavy and kappa light constant regions) VH: EVKFEESGGGLVQPGGSMKLSCVASGFTFSNYWMNWVRQSPEKGLEWVAQIRLKSDNYATHYAESVKGRFSISRDDSKSSVYLQMNNLRAEDTGIYYCSVGTGGYWGQGTTLTVSS VL: DIVLTQSPASLALSPGKRATISCRASESVSIIGTDVIHWFQQKPGQPPKLLIYHASNLETGVPARFSGSGSRTDFTLTIDPVEEDDVAIYYCLQSRKIPWTFGGGTKLEIKR	OD450	0.08
S009-F3.38.10 (antibody, human IgG1, kappa, V domains shown, Human-murine chimeric antibody: murine VH/VL on human IgG1 heavy and kappa light constant regions) VH: EVQLQQSGPVLVKPGASVKMSCEASGYIFTDYYMNWVKKSHGKSLEWIGVINPKNGVISHNQKFKGKATLTVDKSSNTAYMELSSLTSEDSAVYYCANYGSRFYAMDYWGQGTSVTVSS VL: DVVMTQTPLSLPVSLGDQASISCRSSQSLIHSDGNTYLQWYLQKSGQSPKLLIYKVSNRFSGVPDRFSGSGSGTDFTLKISRVETEDLGVYFCSQTTHVPFTFGSGTKLEIKR	OD450	0.07
